Source listed as the supplement of paper PMC10567573.

# MEASUREMENT PROTOCOL: protein stability index of a GFP-peptide fusion (GPS, HEK-293T) (PSI 1-6); higher = more stable;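 note: 24-mer peptide tiles fused after GFP, lentivirally expressed, FACS-sorted into six equal bins by GFP/DsRed ratio, decoded by Illumina sequencing, PSI is the read-weighted mean bin number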
# SETUP CONDITIONS: treatment: DMSO; c terminus: a fixed tail appended
Would you kindly list protein stability index for each of these sequences?
One number for each entry.

Some entries whose results are on file:
GMVRAHGVRVSVPCPSTTCCRACS [BET1L]	3.04
GELRLGKNLYTNEYVAIKLEPMKS [CSNK1G3]	2.32
EVEAKFKRYESHPVCADLQAKILQ [CHCHD3]	3.66
EAARNGKMKFVIGNGKNLVDFTFV [NSDHL]	2.17
TLSWYFLLCVNYFFYGETVTDYFF [CDS2]	3.35

// batch mode: one protein stability index value per listed entry
1. VIPFKVDTILKYLKDHFSHLLGIP [IQUB]
2. GRKDITSILRAPAYPLELQGQPDP [MOSPD3]
3. EFFAVTRFLVGMMNGGMSLVAFVL [SLC22A15]
4. HRNQCQYCRLKKCLKVGMRREAVQ [NR2F2]

1. 2.92
2. 4.26
3. 2.22
4. 2.39
